experiment: self-splicing fitness, log relative to wild type (ln ratio); higher = more splicing; Tetrahymena group I intron in knt gene, E. coli kanamycin selection, DiMSum; sequences stand for … in CUCUCU…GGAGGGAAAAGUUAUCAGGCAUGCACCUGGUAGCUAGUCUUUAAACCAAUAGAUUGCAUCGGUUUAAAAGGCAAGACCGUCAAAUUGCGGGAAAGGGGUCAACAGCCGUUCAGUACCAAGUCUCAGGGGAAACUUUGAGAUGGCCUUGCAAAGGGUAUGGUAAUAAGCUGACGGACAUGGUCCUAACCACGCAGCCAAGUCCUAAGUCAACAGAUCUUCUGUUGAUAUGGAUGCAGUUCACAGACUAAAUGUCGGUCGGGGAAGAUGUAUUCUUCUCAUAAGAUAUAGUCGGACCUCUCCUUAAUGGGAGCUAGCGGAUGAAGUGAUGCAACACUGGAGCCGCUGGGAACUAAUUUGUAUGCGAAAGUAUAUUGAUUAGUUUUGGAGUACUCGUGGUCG; conditions: 37 °C;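 further: selection with 25 µg/mL kanamycin versus none on LB agar overnight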
Task for the reader: assign each of the following sequences its reported self-splicing fitness (ln).

self-splicing fitness (ln) measured on GUUCAGCAAUAUUACGCCGA = -1.34

The measured self-splicing fitness (ln) associated with AUACAGCAAUAUUACGCGGA reads -1.74

GAGGAGCAAUAUUACGACGC has a reported self-splicing fitness (ln) of 0.209

For GUAAAGCAAUAUUACGGCGC the sequence record lists self-splicing fitness (ln) as -0.000459

Note to self: self-splicing fitness (ln) recorded for CUUUAGCAAUAUUACGCUGG was -1.99

Per the record, AUGUAGCAAUAUUACGAACG has self-splicing fitness (ln) of -0.894

Measured self-splicing fitness (ln), GCAUAGCAAUAUUACGAAGG : -1.31

Sure, the documented self-splicing fitness (ln) for UUAAAGCAAUAUUACGACUA is 0.643

# self-splicing fitness (ln) (sequence: AGUUAGCAAUAUUACGCUCG ) is -0.636

// self-splicing fitness (ln) lookup, sequence = CUUGAGCAAUAUUACGUGCA , result: -1.94

The recorded self-splicing fitness (ln) for CGAAAGCAAUAUUACGAUUC is -2.13

The measured self-splicing fitness (ln) associated with ACUCAGCAAUAUUACGGAAA reads -1.5

Looking up ACAAAGCAAUAUUACGUUAA , I see its self-splicing fitness (ln) listed as -1.32

The recorded self-splicing fitness (ln) for entry UACAAGCAAUAUUACGACUG equals 0.278

Form: sequence = UCUCAGCAAUAUUACGCCGU ; self-splicing fitness (ln) = -1.56

// self-splicing fitness (ln) lookup, sequence = AAUUAGCAAUAUUACGCCAG , result: -2.11

Lab note: ACAGAGCAAUAUUACGCGAA gave self-splicing fitness (ln) of -1.21

Just so you know, measured self-splicing fitness (ln) for AAAGAGCAAUAUUACGUCUA came out at -0.882

For reference, reported self-splicing fitness (ln) for ACAGAGCAAUAUUACGCGGG stands at -3.54

// self-splicing fitness (ln) value for CGCAAGCAAUAUUACGGCCU : -0.135

Field self-splicing fitness (ln) (entry GGGGAGCAAUAUUACGCUCA ) reads -0.61

In plain terms, CGCGAGCAAUAUUACGAGAU has a documented self-splicing fitness (ln) of -2.19

Note to self: self-splicing fitness (ln) recorded for CCUGAGCAAUAUUACGUUGU was -2.73

So for CAUCAGCAAUAUUACGCCAU , the logged self-splicing fitness (ln) turned out to be -2.97

Documented self-splicing fitness (ln) of CACAAGCAAUAUUACGUCUG : -0.0931

Quick note, self-splicing fitness (ln) for AAUAAGCAAUAUUACGAAGA landed at -1.92

Record CAAAAGCAAUAUUACGAGAC , field self-splicing fitness (ln): -2.36

Documented self-splicing fitness (ln) of UAGAAGCAAUAUUACGGCGG : 0.388

Reported self-splicing fitness (ln) for UAUUAGCAAUAUUACGAAUC was -0.913

ACAAAGCAAUAUUACGCCUA yielded self-splicing fitness (ln) of -1.32

response.value for CAAGAGCAAUAUUACGCUGU (field: self-splicing fitness (ln)) = -2.34

The recorded self-splicing fitness (ln) for CCCCAGCAAUAUUACGCUGA is -2.42

Reported self-splicing fitness (ln) for AUUUAGCAAUAUUACGCCUA was 0.0334

Looking up UGUGAGCAAUAUUACGCCCU , I found its self-splicing fitness (ln) recorded as -0.113
